system: OVCAR-4; assay: NCI SRB assay; assay type: cell-based, human; settings: OVCAR-4, 1.00E-5 Molar
Reported Endpoint: Growth Percent (%)
Give the value, in units of %, as a plain number.

COc1ccc(-c2nc(Nc3ccccc3C(=O)O)c3ccccc3n2)cc1; 34.25
Cc1cccc(-c2nc(Nc3ccccc3C(=O)O)c3ccccc3n2)c1; 41.88

// fetch Growth Percent given entry Cc1ccc(-c2nc(Nc3ccccc3C(=O)O)c3ccccc3n2)cc1
21.83

Identify Growth Percent associated with the compound Cc1ccc(-c2nc(Nc3ccc(C(=O)O)cc3)c3ccccc3n2)cc1
74.11

Find the measured Growth Percent of Cc1ccc(-c2nc(Nc3cccc(C(=O)O)c3)c3ccccc3n2)cc1 and report it.
77.91

Supply Growth Percent value. Item: Cc1cccc(-c2nc(Nc3ccc(C(=O)O)cc3)c3ccccc3n2)c1
83.42
